- Tested on: HT29 colon
- METHOD: NCI tumour cell line growth inhibition, 48 h
READOUT_NAME: GI50

The recorded GI50 with HT29 colon for CC1=C(SCCC(=O)OC(C[Se]C2=C(C)C(=O)c3ccccc3C2=O)C(=O)NC(C)(C)C)C(=O)c2ccccc2C1=O (centres undefined) was 1.78 µM

The recorded GI50 with HT29 colon for C1CC[N-]CC1.CC(=N\O)/C(C)=N/O.CC(=N\O)/C(C)=N/O.C[CH-]C(C)O.[Co+2] was 34.3 µM

The recorded GI50 with HT29 colon for COc1ccc(S(=O)(=O)Nc2cc(Sc3cccc4cccnc34)c(O)c3ccccc23)cc1 was 0.823 µM

The recorded GI50 with HT29 colon for C=C(CN1CCN(c2ccc(F)c(Cl)c2)CC1)c1ccc(C(=O)Nc2ccccc2N)cc1 was 2.32 µM

The recorded GI50 with HT29 colon for Cc1c2ccccc2c(C)n2c1nc1cc(Cl)c(Cl)cc12 was 31 µM

The recorded GI50 with HT29 colon for CC(=O)[O][Hg][c]1s[c]([Hg][O]C(C)=O)[c]([Hg][O]C(C)=O)[c]1[Hg][O]C(C)=O was 19.5 µM

The recorded GI50 with HT29 colon for N#Cc1cc2c(cc1Cl)SC(=Nc1ccccc1)N(S(=O)(=O)c1ccc(Br)s1)S2(=O)=O was 32.3 µM

The recorded GI50 with HT29 colon for C[C@@H]1Cc2c(ccc3[nH]ncc23)[C@@H](c2ccc(NC3CN(CCCF)C3)cn2)N1CC(F)(F)F was 13.7 µM

The recorded GI50 with HT29 colon for c1ccc(-c2cc3n4c(-c5ccccc5)nn(-c5ccccc5)c4cnc-3n2)cc1 was > 50 µM

---

- Tested on: ACHN renal
- METHOD: NCI tumour cell line growth inhibition, 48 h; in the data active = GI50 below about 0.43 µM; inactive = the rest
Select the matching outcome among active, inactive

Dear all, I need the recorded test outcome for CC1=C(SCCC(=O)OC(C[Se]C2=C(C)C(=O)c3ccccc3C2=O)C(=O)NC(C)(C)C)C(=O)c2ccccc2C1=O (centres undefined) , thank you.
inactive

Dear all, I need the recorded test outcome for Cn1cccc1-c1cc(-c2ccccc2)nc(N)c1C#N , thank you.
inactive

Dear all, I need the recorded test outcome for CC[C@@H](C(=O)[C@@H](C)[C@@H](O)[C@H](C)[C@@H]1O[C@@H]([C@@H](CC)C(=O)O)CC[C@@H]1C)[C@H]1O[C@]2(C=C[C@@H](O)[C@]3(CC[C@@](C)([C@H]4CC[C@](O)(CC)[C@H](C)O4)O3)O2)[C@H](C)C[C@@H]1C , thank you.
inactive

Dear all, I need the recorded test outcome for O=C(/C=C/c1ccc(Cl)cc1Cl)c1ccc(Cl)cc1Cl , thank you.
inactive

Dear all, I need the recorded test outcome for N#Cc1cc2c(cc1Cl)SC(=Nc1ccccc1)N(S(=O)(=O)c1ccc(Br)s1)S2(=O)=O , thank you.
inactive

Dear all, I need the recorded test outcome for COc1ccc(S(=O)(=O)Nc2cc(Sc3cccc4cccnc34)c(O)c3ccccc23)cc1 , thank you.
inactive

Dear all, I need the recorded test outcome for CN(C)CCOc1ccc2c(c1)C(=O)/C(=C\c1ncc([N+](=O)[O-])n1C)C2 , thank you.
active

Dear all, I need the recorded test outcome for Cc1cc2nc(-c3ccc(O)c(O)c3)n(Cc3ccc(O)c(O)c3)c2cc1C , thank you.
inactive

Dear all, I need the recorded test outcome for CSc1nc2ccc(C)cc2cc1/C=C1/C=C(c2ccccc2)NC1=O , thank you.
inactive
